System: PC-3 cells
TEST: Sulforhodamine B (SRB) assay, PC-3
Type: cell-based
COND: Homo sapiens; PC-3 cells, SRB, 48 h; read-out: GI50 con. ± SEM PC-3
PROPERTY_NAME: GI50 (µM)

a = O=C(NO)c1ccc(Cn2c(=O)n(CCOCCOCCOCCn3c(=O)c4ccccc4n(Cc4ccc(C(=O)NO)cc4)c3=O)c(=O)c3ccccc32)cc1
b = O=C(NO)c1ccc(Cn2c(=O)n(CCc3ccc(NCCOCCOCCNc4ccc(CCn5c(=O)c6ccccc6n(Cc6ccc(C(=O)NO)cc6)c5=O)cc4)cc3)c(=O)c3ccccc32)cc1
Lab note: check whether a or b shows the higher recorded GI50. Give the label under which the chosen entry appears.
a
(a: 14.7 µM, b: 5.5 µM)

* * *

TARGET_SYSTEM: HDAC6 (Homo sapiens)
TEST: HDAC enzyme activity assay (Reaction Biology), HDAC6
Format: biochemical
Parameters: Full-length recombinant hHDAC 6 was expressed in a baculovirus expression system in SF9 cells; purchased Reaction Biology Corporation (Malvern, PA); host or cells: baculovirus / SF9 insect cells
COND: ratio of HDAC1 IC50 to HDAC6 IC50
PROPERTY_NAME: HDAC1/6 Selectivity

Consider the following illustrative entries.
{"MOLECULE": "O=C(NO)c1ccc(Cn2c(=O)n(CCOCCOCCn3c(=O)c4ccccc4n(Cc4ccc(C(=O)NO)cc4)c3=O)c(=O)c3ccccc32)cc1", "TARGET_SYSTEM": "HDAC6 (Homo sapiens)", "HDAC1/6 Selectivity": 1386}
{"MOLECULE": "O=C(NO)c1ccc(Cn2c(=O)n(CCOCCOCCOCCn3c(=O)c4ccccc4n(Cc4ccc(C(=O)NO)cc4)c3=O)c(=O)c3ccccc32)cc1", "TARGET_SYSTEM": "HDAC6 (Homo sapiens)", "HDAC1/6 Selectivity": 273}
{"MOLECULE": "O=C(NO)c1ccc(Cn2c(=O)n(CCc3ccccc3)c(=O)c3ccccc32)cc1", "TARGET_SYSTEM": "HDAC6 (Homo sapiens)", "HDAC1/6 Selectivity": 2790}

A = O=C(NO)c1ccc(CNc2ccccc2C(=O)NCCOCCOCCNC(=O)c2ccccc2NCc2ccc(C(=O)NO)cc2)cc1 [Compound 11b]
B = O=C(NO)c1ccc(CNc2ccccc2C(=O)NCCCCCNC(=O)c2ccccc2NCc2ccc(C(=O)NO)cc2)cc1 [Compound 11c]
Given the two records A and B , choose the one whose HDAC1/6 Selectivity value is lower. Give the label under which the chosen entry appears.
B
(B: 95, A: 326)

1 = O=C(NO)c1ccc(CNc2ccccc2C(=O)NCCOCCOCCOCCNC(=O)c2ccccc2NCc2ccc(C(=O)NO)cc2)cc1 [Compound 11a]
2 = O=C(NO)c1ccc(Cn2c(=O)n(CCc3ccc(NCCOCCOCCNc4ccc(CCn5c(=O)c6ccccc6n(Cc6ccc(C(=O)NO)cc6)c5=O)cc4)cc3)c(=O)c3ccccc32)cc1
Lab note: check whether 1 or 2 shows the higher recorded HDAC1/6 Selectivity. Give the label under which the chosen entry appears.
1
(1: 577, 2: 283)

* * *

TARGET_SYSTEM: UniProt:Q9UBN7
Sequence (Q9UBN7 1-1215): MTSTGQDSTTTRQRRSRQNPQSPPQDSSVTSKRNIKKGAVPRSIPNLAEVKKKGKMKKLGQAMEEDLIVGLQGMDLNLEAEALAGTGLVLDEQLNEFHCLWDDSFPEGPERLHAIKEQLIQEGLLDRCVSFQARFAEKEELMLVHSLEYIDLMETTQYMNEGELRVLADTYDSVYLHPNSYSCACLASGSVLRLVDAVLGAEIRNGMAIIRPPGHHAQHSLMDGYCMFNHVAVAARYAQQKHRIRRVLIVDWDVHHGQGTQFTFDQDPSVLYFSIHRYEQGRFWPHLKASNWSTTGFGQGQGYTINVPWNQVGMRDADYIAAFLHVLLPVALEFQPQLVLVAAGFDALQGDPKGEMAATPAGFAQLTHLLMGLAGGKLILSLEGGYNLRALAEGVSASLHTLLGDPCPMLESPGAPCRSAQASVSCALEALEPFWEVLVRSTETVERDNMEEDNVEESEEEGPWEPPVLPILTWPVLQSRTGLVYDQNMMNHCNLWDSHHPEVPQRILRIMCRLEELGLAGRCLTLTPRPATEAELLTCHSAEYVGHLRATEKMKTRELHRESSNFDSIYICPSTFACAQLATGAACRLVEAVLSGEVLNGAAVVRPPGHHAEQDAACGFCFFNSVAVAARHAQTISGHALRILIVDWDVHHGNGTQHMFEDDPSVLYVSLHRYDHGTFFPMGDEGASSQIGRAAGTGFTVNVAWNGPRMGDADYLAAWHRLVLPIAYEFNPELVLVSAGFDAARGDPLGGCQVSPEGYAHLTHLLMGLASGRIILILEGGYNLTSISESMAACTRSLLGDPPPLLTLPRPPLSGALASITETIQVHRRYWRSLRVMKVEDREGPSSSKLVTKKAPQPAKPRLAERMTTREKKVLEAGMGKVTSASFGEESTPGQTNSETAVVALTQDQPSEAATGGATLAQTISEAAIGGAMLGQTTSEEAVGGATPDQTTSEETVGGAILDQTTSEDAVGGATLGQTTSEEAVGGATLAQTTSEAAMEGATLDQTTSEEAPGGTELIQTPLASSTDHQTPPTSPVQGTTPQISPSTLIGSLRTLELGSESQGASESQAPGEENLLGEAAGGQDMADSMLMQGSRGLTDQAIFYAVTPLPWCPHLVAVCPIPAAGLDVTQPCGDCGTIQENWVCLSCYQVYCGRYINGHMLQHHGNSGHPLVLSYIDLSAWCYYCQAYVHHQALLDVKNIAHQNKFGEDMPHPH
TEST: HDAC enzyme activity assay (Reaction Biology), HDAC6
Format: biochemical
Design: Full-length recombinant hHDAC 6 was expressed in a baculovirus expression system in SF9 cells; purchased Reaction Biology Corporation (Malvern, PA); host or cells: baculovirus / SF9 insect cells
COND: full-length recombinant hHDAC 6, RHKKAc substrate 50 μM, 2 h at 30 °C
pIC50: −log10 of the molar value.
PROPERTY_NAME: pIC50

Consider the following illustrative entries.
{"COMPOUND": "O=C(NO)c1ccc(Cn2c(=O)n(CCCCCn3c(=O)c4ccccc4n(Cc4ccc(C(=O)NO)cc4)c3=O)c(=O)c3ccccc32)cc1 [Compound 8c]", "pIC50": 7.57}
{"COMPOUND": "O=C(NO)c1ccc(Cn2c(=O)n(CCc3ccc(NCCOCCOCCNc4ccc(CCn5c(=O)c6ccccc6n(Cc6ccc(C(=O)NO)cc6)c5=O)cc4)cc3)c(=O)c3ccccc32)cc1 [Compound 6b]", "pIC50": 7.48}
{"COMPOUND": "O=C(NO)c1ccc(CNc2ccccc2C(=O)NCCOCCOCCOCCNC(=O)c2ccccc2NCc2ccc(C(=O)NO)cc2)cc1 [Compound 11a]", "pIC50": 8.40}
{"COMPOUND": "O=C(NO)c1ccc(Cn2c(=O)n(CCOCCOCCOCCn3c(=O)c4ccccc4n(Cc4ccc(C(=O)NO)cc4)c3=O)c(=O)c3ccccc32)cc1 [Compound 8a]", "pIC50": 7.92}
{"COMPOUND": "O=C(NO)c1ccc(CNc2ccccc2C(=O)NCCCCCNC(=O)c2ccccc2NCc2ccc(C(=O)NO)cc2)cc1 [Compound 11c]", "pIC50": 7.82}

a = O=C(NO)c1ccc(Cn2c(=O)n(CCc3ccccc3)c(=O)c3cc(NCCOCCOCCNc4ccc5c(c4)c(=O)n(CCc4ccccc4)c(=O)n5Cc4ccc(C(=O)NO)cc4)ccc32)cc1 [Compound 4b]
b = O=C(NO)c1ccc(Cn2c(=O)n(CCc3ccccc3)c(=O)c3cc(NCCOCCOCCOCCNc4ccc5c(c4)c(=O)n(CCc4ccccc4)c(=O)n5Cc4ccc(C(=O)NO)cc4)ccc32)cc1 [Compound 4a]
c = O=C(NO)c1ccc(Cn2c(=O)n(CCOCCOCCn3c(=O)c4ccccc4n(Cc4ccc(C(=O)NO)cc4)c3=O)c(=O)c3ccccc32)cc1 [Compound 8b]
Write the entries in order, lowest recorded pIC50 first. List the labels, following the order given in the request.
a, b, c
(a: 6.09, b: 7.04, c: 8.70)

P = O=C(NO)c1ccc(CNc2ccccc2C(=O)NCCOCCOCCNC(=O)c2ccccc2NCc2ccc(C(=O)NO)cc2)cc1 [Compound 11b]
Q = O=C(NO)c1ccc(Cn2c(=O)n(CCc3ccccc3)c(=O)c3cc(NCCCCCNc4ccc5c(c4)c(=O)n(CCc4ccccc4)c(=O)n5Cc4ccc(C(=O)NO)cc4)ccc32)cc1 [Compound 4c]
Lab note: check whether P or Q shows the higher recorded pIC50. Give the label under which the chosen entry appears.
P

* * *

Please consider the recorded IC50 for HDAC1 (Homo sapiens, UniProt Q13547) in what follows.
PROPERTY_NAME: IC50 (nM)

{"COMPOUND": "O=C(NO)c1ccc(CNc2ccccc2C(=O)NCCOCCOCCNC(=O)c2ccccc2NCc2ccc(C(=O)NO)cc2)cc1 [Compound 11b]", "UNIT_TAG": "nM", "OBSERVED_MEASUREMENT": 1270}

1 = O=C(NO)c1ccc(CNc2ccccc2C(=O)NCCCCCNC(=O)c2ccccc2NCc2ccc(C(=O)NO)cc2)cc1 [Compound 11c]
2 = O=C(NO)c1ccc(CNc2ccccc2C(=O)NCCOCCOCCOCCNC(=O)c2ccccc2NCc2ccc(C(=O)NO)cc2)cc1 [Compound 11a]
3 = O=C(NO)c1ccc(Cn2c(=O)n(CCc3ccccc3)c(=O)c3ccccc32)cc1
Write the entries in order, lowest recorded IC50 first. List the labels, following the order given in the request.
1, 2, 3
(1: 1460 nM, 2: 2600 nM, 3: 11200 nM)
